Entry source: PubChem BioAssay AID1963441

System: NCI-H1876 complex spheroid growth, % test/control
testDescription: Anticancer human tumor NCI-H1876 cell line growth inhibition [Asc];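 further: compound exposure lasted 7 days starting three days after seeding; 100% = DMSO vehicle control wells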
conditionParameters: second compound 0.0316 µM; first compound 0.316 µM; stronger effect = lower value
endpointName: viability, T/C (%)
Write the answer as a number in %, unit excluded.

O=C(c1ccc(F)c(F)c1Nc1ccc(I)cc1F)N1CC(O)([C@@H]2CCCCN2)C1 + CNC(C)C(=O)NC1CN(S(=O)(=O)c2cccc(S(=O)(=O)N3CCC4CCC(C(=O)NC(c5ccccc5)c5ccccc5)N4C(=O)C(NC(=O)C(C)NC)C3)c2)CCC2CCC(C(=O)NC(c3ccccc3)c3ccccc3)N2C1=O | 85.5
O=C(c1cc(Cc2n[nH]c(=O)c3ccccc23)ccc1F)N1CCN(C(=O)C2CC2)CC1 + Cc1c(S(C)(=O)=O)c(-c2cc(F)cc(N3CCN(c4ccc(NS(=O)(=O)c5ccc(NC(CCN6CCC(C(=O)OCCCP(=O)(O)O)CC6)CSc6ccccc6)c(S(=O)(=O)C(F)(F)F)c5)cc4)CC3)c2)c(-c2ccc(Cl)cc2)n1C(C)C | 92.8

Let us move to another entry and its viability, T/C.
Request: // query viability, T/C value for entry CNC(C)C(=O)NC1CN(S(=O)(=O)c2cccc(S(=O)(=O)N3CCC4CCC(C(=O)NC(c5ccccc5)c5ccccc5)N4C(=O)C(NC(=O)C(C)NC)C3)c2)CCC2CCC(C(=O)NC(c3ccccc3)c3ccccc3)N2C1=O (stereo not drawn) + Cc1c(S(C)(=O)=O)c(-c2cc(F)cc(N3CCN(c4ccc(NS(=O)(=O)c5ccc(NC(CCN6CCC(C(=O)OCCCP(=O)(O)O)CC6)CSc6ccccc6)c(S(=O)(=O)C(F)(F)F)c5)cc4)CC3)c2)c(-c2ccc(Cl)cc2)n1C(C)C
Result: 103

----------
Test system: NCI-H1876 complex spheroid growth, % test/control
testDescription: Anticancer human tumor NCI-H1876 cell line growth inhibition [Asc];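 further: compound exposure lasted 7 days starting three days after seeding; 100% = DMSO vehicle control wells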
conditionParameters: second compound 0.3 µM; first compound 0.00316 µM; stronger effect = lower value
endpointName: viability, T/C (%)
Write the answer as a number in %, unit excluded.

Completed entries (count: 3):
NC1CCC(NC2CC2c2ccccc2)CC1 (centres undefined) + CCN1C(C(=O)NC23CCC(C(=O)O)(CC2)CC3)C(c2cccc(Cl)c2F)C2(C(=O)Nc3cc(Cl)ccc32)C12CCCCC2 | 123
Cn1ncnc1[C@H]1c2n[nH]c(=O)c3cc(F)cc(c23)N[C@@H]1c1ccc(F)cc1 + CCN1C(C(=O)NC23CCC(C(=O)O)(CC2)CC3)C(c2cccc(Cl)c2F)C2(C(=O)Nc3cc(Cl)ccc32)C12CCCCC2 | 111
COc1c(OCCCN2CCOCC2)ccc2c3n(c(=NC(=O)c4cnc(N)nc4)nc12)CCN3 + CCN1C(C(=O)NC23CCC(C(=O)O)(CC2)CC3)C(c2cccc(Cl)c2F)C2(C(=O)Nc3cc(Cl)ccc32)C12CCCCC2 | 96.8

Request: I'd like to know its viability, T/C. The compound in question is O=C(c1ccc(F)c(F)c1Nc1ccc(I)cc1F)N1CC(O)([C@@H]2CCCCN2)C1 + CCN1C(C(=O)NC23CCC(C(=O)O)(CC2)CC3)C(c2cccc(Cl)c2F)C2(C(=O)Nc3cc(Cl)ccc32)C12CCCCC2
Result: 99.9

----------
Test system: NCI-H1876 complex spheroid growth, % test/control
testDescription: Anticancer human tumor NCI-H1876 cell line growth inhibition [Asc];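 further: compound exposure lasted 7 days starting three days after seeding; 100% = DMSO vehicle control wells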
conditionParameters: second compound 0.316 µM; first compound 0.316 µM; stronger effect = lower value
endpointName: viability, T/C (%)
All answers are understood in %, so give the number only.

C#Cc1c(F)ccc2cc(O)cc(-c3ncc4c(N5CC6CCC(C5)N6)nc(OCC56CCCN5CC(F)C6)nc4c3F)c12 (centres undefined) + CNC(C)C(=O)NC1CN(S(=O)(=O)c2cccc(S(=O)(=O)N3CCC4CCC(C(=O)NC(c5ccccc5)c5ccccc5)N4C(=O)C(NC(=O)C(C)NC)C3)c2)CCC2CCC(C(=O)NC(c3ccccc3)c3ccccc3)N2C1=O | 89.8
COc1c(OCCCN2CCOCC2)ccc2c3n(c(=NC(=O)c4cnc(N)nc4)nc12)CCN3 + Cc1c(S(C)(=O)=O)c(-c2cc(F)cc(N3CCN(c4ccc(NS(=O)(=O)c5ccc(NC(CCN6CCC(C(=O)OCCCP(=O)(O)O)CC6)CSc6ccccc6)c(S(=O)(=O)C(F)(F)F)c5)cc4)CC3)c2)c(-c2ccc(Cl)cc2)n1C(C)C | 43.2
C=C(F)C(=O)N1CCN(c2nc(OCC3CCCN3C)nc3c2CCN(c2cccc4cccc(Cl)c24)C3)CC1CC#N (centres undefined) + Cc1c(S(C)(=O)=O)c(-c2cc(F)cc(N3CCN(c4ccc(NS(=O)(=O)c5ccc(NC(CCN6CCC(C(=O)OCCCP(=O)(O)O)CC6)CSc6ccccc6)c(S(=O)(=O)C(F)(F)F)c5)cc4)CC3)c2)c(-c2ccc(Cl)cc2)n1C(C)C | 96.5

Next:
Request: What viability, T/C value was documented for this molecule, C=C(F)C(=O)N1CCN(c2nc(OCC3CCCN3C)nc3c2CCN(c2cccc4cccc(Cl)c24)C3)CC1CC#N (centres undefined) + CNC(C)C(=O)NC1CN(S(=O)(=O)c2cccc(S(=O)(=O)N3CCC4CCC(C(=O)NC(c5ccccc5)c5ccccc5)N4C(=O)C(NC(=O)C(C)NC)C3)c2)CCC2CCC(C(=O)NC(c3ccccc3)c3ccccc3)N2C1=O ?
Result: 107

----------
Tested on: NCI-H1876 complex spheroid growth, % test/control
testDescription: Anticancer human tumor NCI-H1876 cell line growth inhibition [Asc];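 further: compound exposure lasted 7 days starting three days after seeding; 100% = DMSO vehicle control wells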
conditionParameters: second compound 0.0316 µM; first compound 0.949 µM; stronger effect = lower value
endpointName: viability, T/C (%)
Expressed in %, but write only the number.

CCN1C(C(=O)NC23CCC(C(=O)O)(CC2)CC3)C(c2cccc(Cl)c2F)C2(C(=O)Nc3cc(Cl)ccc32)C12CCCCC2 (stereo not drawn) + CNC(C)C(=O)NC1CN(S(=O)(=O)c2cccc(S(=O)(=O)N3CCC4CCC(C(=O)NC(c5ccccc5)c5ccccc5)N4C(=O)C(NC(=O)C(C)NC)C3)c2)CCC2CCC(C(=O)NC(c3ccccc3)c3ccccc3)N2C1=O | 132
Cc1nc(N2CCC3(CC2)COC(C)C3N)c(CO)nc1Sc1ccnc(N)c1Cl (stereo not drawn) + Cc1c(S(C)(=O)=O)c(-c2cc(F)cc(N3CCN(c4ccc(NS(=O)(=O)c5ccc(NC(CCN6CCC(C(=O)OCCCP(=O)(O)O)CC6)CSc6ccccc6)c(S(=O)(=O)C(F)(F)F)c5)cc4)CC3)c2)c(-c2ccc(Cl)cc2)n1C(C)C | 83.2

# context switch: different compound, same viability, T/C
Request: Provide value of viability, T/C for this record tested with NCI-H1876 complex spheroid growth, % test/control: CCN1C(C(=O)NC23CCC(C(=O)O)(CC2)CC3)C(c2cccc(Cl)c2F)C2(C(=O)Nc3cc(Cl)ccc32)C12CCCCC2 (stereo not drawn) + Cc1c(S(C)(=O)=O)c(-c2cc(F)cc(N3CCN(c4ccc(NS(=O)(=O)c5ccc(NC(CCN6CCC(C(=O)OCCCP(=O)(O)O)CC6)CSc6ccccc6)c(S(=O)(=O)C(F)(F)F)c5)cc4)CC3)c2)c(-c2ccc(Cl)cc2)n1C(C)C
Result: 125
